Biological target: human ferroportin (Homo sapiens, UniProt Q9NP59)
Construct: luciferase reporter (read with the Nano-Glo Luciferase Assay System); expressed in transfected cells; host or cells: CHO cells, stably transfected, expression induced with doxycycline
Sequence (Q9NP59 whole entry): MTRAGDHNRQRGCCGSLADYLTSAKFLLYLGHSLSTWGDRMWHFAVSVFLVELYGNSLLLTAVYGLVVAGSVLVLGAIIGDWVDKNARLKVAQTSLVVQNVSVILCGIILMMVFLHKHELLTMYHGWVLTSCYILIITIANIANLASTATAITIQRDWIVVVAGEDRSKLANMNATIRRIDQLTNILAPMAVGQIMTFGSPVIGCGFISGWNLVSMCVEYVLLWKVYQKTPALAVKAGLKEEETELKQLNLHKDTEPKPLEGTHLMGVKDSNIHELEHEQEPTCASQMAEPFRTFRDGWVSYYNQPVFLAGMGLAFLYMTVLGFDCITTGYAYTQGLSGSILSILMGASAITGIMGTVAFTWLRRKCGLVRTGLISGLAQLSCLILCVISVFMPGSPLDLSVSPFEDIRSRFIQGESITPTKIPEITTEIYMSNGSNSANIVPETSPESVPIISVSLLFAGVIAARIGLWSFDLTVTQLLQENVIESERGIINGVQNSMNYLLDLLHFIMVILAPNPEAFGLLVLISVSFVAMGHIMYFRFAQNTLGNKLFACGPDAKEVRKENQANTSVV
Assay: Biological in-vitro ferroportin internalization assay (luciferase reporter)
Assay type: cell-based
Conditions: average pEC50; stably-transfected CHO cell line expressing human ferroportin tagged to a luciferase reporter; 6 h incubation with test compound
attributeMeasured: pEC50

molecule	pEC50
CN(CC(=O)NC(C)(C)C)c1nc(-c2cc(CO)ccn2)nc2c1CCC2	7.3
CN(CC(=O)NC(C)(C)C)c1nc(-c2cc(OC[C@H](O)CF)ccn2)nc2c1CCC2	8.4
CC(C)NC(=O)CN(C)c1nc(-c2cc(OCC(C)(C)O)ccn2)nc2c1CCC2	7.9
CC(C)(C)NC(=O)CNc1nc(-c2ccccn2)nc2c1CCCC2	6.6
